These molecules were tested on Heat shock protein HSP 90-alpha (Homo sapiens); pIC50 is the recorded read-out.
pIC50: −log10 of the molar value.
recorded metric: pIC50

[[record]]
structure_notation = "COc1ccc(-c2c(C)n[nH]c2-c2cc(Cl)c(O)cc2O)cc1"
observed_value = 6.82

[[record]]
structure_notation = "Cc1n[nH]c(-c2ccc(O)cc2O)c1-c1ccc2c(c1)OCCO2"
observed_value = 5.33

[[record]]
structure_notation = "COc1ccc(-c2c(-c3cc(Cl)c(O)cc3O)n[nH]c2C(=O)O)cc1"
observed_value = 6.29

[[record]]
structure_notation = "CNC(=O)c1[nH]nc(-c2cc(Cl)c(O)cc2O)c1-c1ccc(OC)cc1"
observed_value = 7.41

[[record]]
structure_notation = "COc1ccc(-c2c(-c3cc(Cl)c(O)cc3O)n[nH]c2C(=O)NC(C)C)cc1"
observed_value = 6.92

[[record]]
structure_notation = "COc1ccc(-c2c(-c3cc(Cl)c(O)cc3O)n[nH]c2C(N)=O)cc1"
observed_value = 7.28

[[record]]
structure_notation = "COc1ccc(-c2c(C)n[nH]c2-c2cc(Br)c(O)cc2O)cc1"
observed_value = 7.21

